Each entry below lists one item and its recorded median log2 fold change value.
Target desc: MAP1LC3A, Q9H492
Procedure summary: median log2 fold change of GCK-ALFA target abundance (FLAG IP / Myc IP barcode read proportion) (log2 ratio); each designed protein is fused to an ALFA-tag nanobody in HEK293 cells to bring the named protein to FLAG-tagged glucokinase (GCK); Myc marks an untargeted standard; higher = target protein stabilised (more abundant)
Particulars: target protein: 3xFLAG-MCP-GCK-ALFA reporter; HEK293 landing pad (RPLP)
The full ranking holds about 2,300 sequences; the median of “median log2 fold change of GCK-ALFA target abundance (FLAG IP / Myc IP barcode read proportion)” is about 0.095, and the lowest 2% start at about -0.47. This excerpt belongs to a sample that is enriched for the lowest values.
Give your answer as a number; write no unit.

These recorded examples may help you get a feel for the data.
Binder	median log2 fold change
LC3A_147_483 (protein) MRIDIDALIKGEETVEEFIERLEEKKEELEEEGVEVELEIEVEEVEEGVYYLKVTVTIKAETKEKEKEAADKIIDTIEEFEEENKDKVLGVLISVEEIEE	-0.904
LC3A_28_830 (protein) SKIEERIAKFKAEAEAAKASQEPATLTITVTSEDTVEEAKKIAEAMKEEAEKLKDVPDIGIVIDTDGKIDPEVLKILTDTADEIEEKYPNVTVIIALPEE	0.132
LC3A_28_1074 (protein) SAVEEENEKILKEAKEAKEKGEPAVITIKIDESDTDEDIEKKLETIREVAEILKDVEGAAIIIDLEGEKALSRLDEVADLADELEEKYPNLTVIIALDDE	0.0473

Requested read-out: median log2 fold change. Entry: LC3A_28_1014 (protein) SHMEERVAALIAEIEAALAKGEYVVATLTITPEDSLEEVKAAMERVGKAALEAAKKGIVDVVVDLEKGVSQEKLDAVMEAADELEKKAPKLNVVIALEEE
-0.297
